assayed_system: human GCG receptor (human, UniProt P47871 26-477)
Sequence (P47871 26-477): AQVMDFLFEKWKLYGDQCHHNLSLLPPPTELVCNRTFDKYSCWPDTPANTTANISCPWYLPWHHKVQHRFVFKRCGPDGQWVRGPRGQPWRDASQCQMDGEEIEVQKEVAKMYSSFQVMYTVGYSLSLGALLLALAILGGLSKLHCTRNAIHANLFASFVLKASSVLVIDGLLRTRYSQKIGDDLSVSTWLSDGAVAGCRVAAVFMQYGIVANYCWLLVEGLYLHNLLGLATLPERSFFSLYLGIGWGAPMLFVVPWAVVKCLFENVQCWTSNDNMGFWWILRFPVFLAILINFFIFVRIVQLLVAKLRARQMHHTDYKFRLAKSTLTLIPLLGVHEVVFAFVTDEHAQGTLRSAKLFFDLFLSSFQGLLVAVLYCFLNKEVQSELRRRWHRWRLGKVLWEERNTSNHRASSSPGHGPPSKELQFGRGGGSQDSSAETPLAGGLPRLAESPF
assay_procedure: cell-based or functional assay
Positions of bridges follow the written chain, without caps; N, C: chain ends. Non-standard residues stand in square brackets, D forms with d. No end group written: not given here. Aib = CC(C)(N)C(=O)O
metric_name: In vitro activity relative to native peptide (%), vs. Glucagon (cAMP EC50)
Entry rule: numbers only, all in %.

binder	display_unit	recorded_result
Y[Aib]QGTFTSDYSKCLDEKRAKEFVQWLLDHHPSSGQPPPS (bridge 16-20) [trigonal agonist of SEQ ID NO: 22]	%	140
Y[Aib]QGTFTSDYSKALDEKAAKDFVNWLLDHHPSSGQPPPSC (bridge 16-20) [trigonal agonist of SEQ ID NO: 99]	%	14.9
H[Aib]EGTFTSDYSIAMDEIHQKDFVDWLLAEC (bridge 16-20) [trigonal agonist of SEQ ID NO: 54]	%	1.4
Y[Aib]QGTFTSDYSKYLDEKAAKEFVQWLLDHHPSSGQPPPSC (bridge 16-20) [trigonal agonist of SEQ ID NO: 75]	%	8.5
H[Aib]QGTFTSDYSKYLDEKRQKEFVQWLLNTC (bridge 16-20) [trigonal agonist of SEQ ID NO: 51]	%	2

Here is the next item to consider.
Exercise: If you can, please state the reported In vitro activity relative to native peptide (%), vs. Glucagon (cAMP EC50) value of H[Aib]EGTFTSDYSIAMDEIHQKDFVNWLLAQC (bridge 16-20) [trigonal agonist of SEQ ID NO: 53] .
Key: 8.4
